Each recorded value in this set is attributed to ChEMBL document CHEMBL4138275.

Reported IC50 values for the following compounds.
# Tested on: HeLa
# Measurement Description: Antiproliferative activity against human HeLa cells after 48 hrs by sulforhodamine B assay
# Assay type: functional, cell-based
Measured Attribute: IC50 (nM)

* CC(=O)O[C@H]1[C@H]2[C@H]([C@@H]3[C@@H](O)[C@@H]4[C@H]([C@H](C)[C@H]5O[C@]56OC(=O)[C@@](C)(OC(=O)c5ccc7c(c5)C(=O)c5ccccc5C7=O)[C@]46C)[C@@]3(C)[C@H]1OC(C)=O)[C@@H](OC(=O)c1ccc3c(c1)C(=O)c1ccccc1C3=O)C(=O)[C@H]1C[C@@H]3O[C@@H]3[C@H](OC(C)=O)[C@]21C | 3000
* CC(=O)O[C@H]1[C@H]2[C@H]([C@@H]3[C@@H](O)[C@@H]4[C@H]([C@H](C)[C@H]5O[C@]56OC(=O)[C@@](C)(O)[C@]46C)[C@@]3(C)[C@H]1OC(C)=O)[C@@H](OC(=O)C(C)(C)C)C(=O)[C@H]1C[C@@H]3O[C@@H]3[C@H](OC(C)=O)[C@]21C | 9
* CC(=O)O[C@H]1[C@H]2[C@H]([C@@H]3[C@@H](O)[C@@H]4[C@H]([C@H](C)C=C5OC(=O)[C@@](C)(O)[C@@]54C)[C@@]3(C)[C@H]1OC(C)=O)[C@@H](OC(=O)C(C)(C)C)C(=O)[C@H]1C[C@@H]3O[C@@H]3[C@H](OC(C)=O)[C@]21C | 10000
* CC(=O)O[C@H]1[C@H]2[C@H]([C@@H]3[C@@H](O)[C@@H]4[C@H]([C@H](C)[C@H]5O[C@]56OC(=O)[C@@](C)(OC(=O)C(C)C)[C@]46C)[C@@]3(C)[C@H]1OC(C)=O)[C@@H](OC(=O)C(C)C)C(=O)[C@H]1C[C@@H]3O[C@@H]3[C@H](OC(C)=O)[C@]21C | 790

* * *

# Tested on: HeLa
# Measurement Description: Antiproliferative activity against human HeLa cells after 48 hrs by sulforhodamine B assay
# Assay type: functional, cell-based
pIC50: −log10 of the molar value.
Measured Attribute: pIC50

* CC(=O)O[C@H]1[C@H]2[C@H]([C@@H]3[C@@H](OC(=O)C(C)C)[C@@H]4[C@H]([C@H](C)[C@H]5O[C@]56OC(=O)[C@@](C)(O)[C@]46C)[C@@]3(C)[C@H]1OC(C)=O)[C@@H](O)C(=O)[C@H]1C[C@@H]3O[C@@H]3[C@H](OC(C)=O)[C@]21C | 7.97
* CC(=O)O[C@H]1[C@H]2[C@H]([C@@H]3[C@@H](O)[C@@H]4[C@H]([C@H](C)[C@H]5O[C@]56OC(=O)[C@@](C)(O)[C@]46C)[C@@]3(C)[C@H]1OC(C)=O)[C@@H](OC(=O)C(C)C)C(=O)[C@H]1C[C@@H]3O[C@@H]3[C@H](OC(C)=O)[C@]21C | 7.72
* CC(=O)O[C@H]1[C@H]2[C@H]([C@@H]3[C@@H](O)[C@@H]4[C@H]([C@H](C)[C@H]5O[C@]56OC(=O)[C@@](C)(O)[C@]46C)[C@@]3(C)[C@H]1OC(C)=O)[C@@H](OC(=O)CC(C)C)C(=O)[C@H]1C[C@@H]3O[C@@H]3[C@H](OC(C)=O)[C@]21C | 8.62
* CC(=O)O[C@H]1[C@H]2[C@H]([C@@H]3[C@@H](OC(=O)C4CC4)[C@@H]4[C@H]([C@H](C)[C@H]5O[C@]56OC(=O)[C@@](C)(O)[C@]46C)[C@@]3(C)[C@H]1OC(C)=O)[C@@H](O)C(=O)[C@H]1C[C@@H]3O[C@@H]3[C@H](OC(C)=O)[C@]21C | 7.56
* CC(=O)O[C@H]1[C@H]2[C@H]([C@@H]3[C@@H](O)[C@@H]4[C@H]([C@H](C)[C@H]5O[C@]56OC(=O)[C@@](C)(OC(=O)CC(C)C)[C@]46C)[C@@]3(C)[C@H]1OC(C)=O)[C@@H](OC(=O)CC(C)C)C(=O)[C@H]1C[C@@H]3O[C@@H]3[C@H](OC(C)=O)[C@]21C | 6.60
